biological target: Sigma receptor (Cavia porcellus); experiment: Binding affinity against sigma sites in guinea pig membrane using [3H]DTG as the radioligand
measurement.type: pIC50
A value of pIC50 is the negative decimal logarithm of a concentration given in moles per litre.

Fc1ccc2[nH]c3c(c2c1)C1CCC(C3)N1Cc1ccccc1 (stereo unspecified)	7.07

Consider the compound shown here: Clc1ccc(OCCN2C3CCC2c2c([nH]c4ccccc24)C3)cc1 (stereo unspecified) What is its recorded pIC50?
6.60

Queued: c1ccc(CCCCN2C3CCC2c2c(n(Cc4ccccc4)c4ccccc24)C3)cc1 (stereo unspecified)
6.57

What about c1ccc(OCCCCN2C3CCC2c2c([nH]c4ccccc24)C3)cc1 (stereo unspecified) ?
7.06

Next: c1ccc(OCCCN2C3CCC2c2c([nH]c4ccccc24)C3)cc1 (stereo unspecified)
6.88

Field entry: OCCCN1C2CCC1c1c([nH]c3ccc(F)cc13)C2 (stereo unspecified)
6.50

Request: c1ccc(OCCN2C3CCC2c2c([nH]c4ccccc24)C3)cc1 (stereo unspecified)
6.96

Try the compound CC(C)n1c2c(c3ccccc31)C1CCC(C2)N1CCCCc1ccccc1 (stereo unspecified)
6.64

# iterate: O=C1c2ccccc2C(=O)N1CCCN1C2CCC1c1c([nH]c3ccc(F)cc13)C2 (stereo unspecified)
6.08

Quick one: c1csc(CCCCN2C3CCC2c2c([nH]c4ccccc24)C3)c1 (stereo unspecified)
7.68

Now try c1ccc(CCCCCN2C3CCC2c2c([nH]c4ccccc24)C3)cc1 (stereo unspecified) .
6.97
